Target: recombinant human ALK5 (TGF-βR1) protein (Homo sapiens, UniProt P36897)
Construct: purchased Life Technologies PR9075A
Sequence (P36897 34-503): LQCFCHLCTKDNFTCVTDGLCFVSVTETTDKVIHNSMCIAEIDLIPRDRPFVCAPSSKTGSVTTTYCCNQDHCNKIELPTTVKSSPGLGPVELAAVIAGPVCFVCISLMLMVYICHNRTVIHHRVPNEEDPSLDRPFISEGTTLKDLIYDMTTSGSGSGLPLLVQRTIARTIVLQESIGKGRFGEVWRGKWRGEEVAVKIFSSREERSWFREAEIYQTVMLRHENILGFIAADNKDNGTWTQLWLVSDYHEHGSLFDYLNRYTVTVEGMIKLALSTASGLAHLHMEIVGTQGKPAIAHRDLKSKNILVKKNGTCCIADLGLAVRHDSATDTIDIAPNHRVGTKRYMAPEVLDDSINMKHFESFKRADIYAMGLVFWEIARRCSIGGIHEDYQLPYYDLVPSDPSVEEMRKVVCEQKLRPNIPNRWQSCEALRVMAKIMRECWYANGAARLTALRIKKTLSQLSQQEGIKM
Test: Biochemical ALK5 (TGF-βR1) assay to measure pKi (LANCE Ultra ULight kinase assay)
Details: apparent pKi from pIC50 by Cheng-Prusoff, read-out: ALK5 pKi (converted)
measured-property: Ki

Example cases with answers are listed next.
COC(=O)[C@H]1CNCCN1CCNc1cnc2ccc(-c3nc[nH]c3-c3cccc(C)n3)cc2c1 [Compound 723] :: 0.0398 to 0.316 nM
Cc1cccc(-c2n[nH]cc2-c2ccc3ncc(-c4cnc5n4CCNC5)cc3c2)n1 [Compound 538] :: 0.398 to 3.16 nM
COC(=O)N1CCc2nnc(-c3cnc4ccc(-c5c[nH]nc5-c5cccc(C)n5)nc4c3)cc2C1 [Compound 613] :: 0.0398 to 0.316 nM
Cc1cccc(-c2n[nH]cc2-c2ccc3ncc(NC(=O)CN4CCN(C(C)C)CC4)cc3n2)n1 [Compound 625] :: 0.0398 to 0.316 nM
CNCC1CN(c2cnc3ccc(-c4c[nH]nc4-c4cccc(C)n4)nc3c2)C1 [Compound 672] :: 0.0398 to 0.316 nM

Provide value of Ki for this record tested with recombinant human ALK5 (TGF-βR1) protein (Homo sapiens, UniProt P36897): Cc1cccc(-c2n[nH]cc2-c2ccc3ncc(N4CCC(O)CC4)cc3n2)n1 [Compound 282]
< 0.0316 nM

Kindly state the measured Ki obtained for Cc1cccc(-c2n[nH]cc2-c2ccc3ncc(N4CCCN(CC5CCCN5)CC4)cc3n2)n1 (stereo not shown) [Compound 274] with recombinant human ALK5 (TGF-βR1) protein (Homo sapiens, UniProt P36897).
0.0398 to 0.316 nM

###

Target: recombinant human ALK5 (TGF-βR1) protein (Homo sapiens, UniProt P36897)
Construct: purchased Life Technologies PR9075A
Sequence (P36897 34-503): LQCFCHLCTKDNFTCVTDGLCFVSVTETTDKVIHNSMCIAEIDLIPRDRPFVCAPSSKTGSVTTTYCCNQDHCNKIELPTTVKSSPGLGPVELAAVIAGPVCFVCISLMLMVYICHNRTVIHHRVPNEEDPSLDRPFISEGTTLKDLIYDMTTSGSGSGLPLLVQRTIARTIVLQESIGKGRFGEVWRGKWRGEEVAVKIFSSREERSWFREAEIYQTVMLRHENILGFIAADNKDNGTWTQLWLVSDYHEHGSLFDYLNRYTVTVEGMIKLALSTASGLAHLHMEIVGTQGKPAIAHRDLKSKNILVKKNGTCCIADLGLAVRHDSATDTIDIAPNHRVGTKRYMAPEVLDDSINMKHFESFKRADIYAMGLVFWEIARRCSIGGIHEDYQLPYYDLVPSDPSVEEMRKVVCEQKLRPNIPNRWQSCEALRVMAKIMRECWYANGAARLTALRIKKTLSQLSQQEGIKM
Assay: Biochemical ALK5 (TGF-βR1) assay to measure pKi (LANCE Ultra ULight kinase assay)
Details: apparent pKi from pIC50 by Cheng-Prusoff, read-out: ALK5 pKi (converted)
measured-property: Ki

COC(=O)c1cccc(-c2cnc3ccc(-c4c[nH]nc4-c4cccc(C)n4)nc3c2)c1 :: < 31.6 pM

Looking for the measured Ki of Cc1cccc(-c2[nH]cnc2-c2ccc3ncc(-c4ccc(C(=O)O)cc4)cc3c2)n1 , can you help?
39.8 to 316 pM

Request the reported Ki associated with COC[C@H]1CN(CCNc2cnc3ccc(-c4nc[nH]c4-c4cccc(C)n4)cc3c2)CCN1
39.8 to 316 pM

Ki lookup needed for Cc1cccc(-c2[nH]cnc2-c2ccc3ncc(-c4ccc(C(=O)OC5CNC5)s4)cc3c2)n1 , thanks.
39.8 to 316 pM

For the molecule Cc1cccc(-c2[nH]cnc2-c2ccc3ncc(N4CCNC(CC(=O)O)C4)cc3c2)n1 (stereo not shown) , what Ki is on record?
39.8 to 316 pM

# query: Ki of entry Cc1nc(-c2n[nH]cc2-c2ccc3ncc(-c4cnn(C(=O)OC(C)C)c4)cc3n2)ccc1F
< 31.6 pM
